Biological target: Recombinant full length HIV-1 Reverse Transcriptase (HIVrt) (Human immunodeficiency virus type 1 group M subtype B (isolate HXB2) (HIV-1))
Assay: Inhibition of HIV reverse transcriptase (HIVrt RNA-dependent DNA polymerization assay)
Conditions: 1 nM HIVrt, c5′UTR RNA template, 30° C., 40 min; phosphono diphosphates tested
Consider the following compounds and their measured IC50 readings.

# count of solved cases: 3
| compound | measurementKind | measurement |
| --- | --- | --- |
| C[C@H](Cc1ccc2c(N)ncnn12)OCP(=O)(O)OP(=O)(O)OP(=O)(O)O | IC50 | < 50 nM |
| Nc1ncnc2c(CC3(OCP(=O)(O)OP(=O)(O)OP(=O)(O)O)CC3)cnn12 | IC50 | 50 to 250 nM |
| Nc1ncnc2c(C[C@@H](OCP(=O)(O)OP(=O)(O)OP(=O)(O)O)C(F)F)cnn12 | IC50 | 50 to 250 nM |

Find the recorded IC50 belonging to CC(Cc1ccc2c(N)nc(N)nn12)OCP(=O)(O)OP(=O)(O)OP(=O)(O)O (stereo not shown) and report it.
≥ 250 nM

----------
Tested on: HBV
Experiment: microbe, parasite or virus in culture
Format: cell-based
Details: Hepatitis B virus; HepG2.117 cells, 72 hours, HBV viral copy numbers in supernatant; read-out: EC50
pEC50: −log10 of the molar value.
measurementKind: pEC50

# count of solved cases: 10
| molecule | system | pEC50 |
| --- | --- | --- |
| CC(C)OC(=O)OCOP(=O)(COCCc1ccc2c(N)ncnn12)OCOC(=O)OC(C)C | HBV | 5.00 to 6.00 |
| Nc1ncnc2c(C[C@@H](OCP(=O)(O)O)C(F)F)cnn12 | HBV | 5.00 to 6.00 |
| Nc1ncnc2c(CC(CF)OCP(=O)(O)O)cnn12 (centres unmarked) | HBV | 5.00 to 6.00 |
| CC(C)OC(=O)OCOP(=O)(COC(C)Cc1ccc2c(N)nc(N)nn12)OCOC(=O)OC(C)C (centres unmarked) | HBV | 5.00 to 6.00 |
| C[C@H](Cc1ccc2c(N)ncnn12)OCP(=O)(O)O | HBV | 4.00 to 5.00 |
| CC(C)OC(=O)OCOP(=O)(COC(CF)Cc1cnn2c(N)ncnc12)OCOC(=O)OC(C)C (centres unmarked) | HBV | > 6.00 |
| CC(Cc1cnc2c(=O)[nH]c(N)nn12)OCP(=O)(O)O (centres unmarked) | HBV | > 6.00 |
| Nc1ncnn2c(C[C@H](CF)OCP(=O)(O)O)cnc12 | HBV | > 6.00 |
| CC(C)OC(=O)OCOP(=O)(CO[C@H](C)Cc1cnc2c(N)ncnn12)OCOC(=O)OC(C)C | HBV | > 6.00 |
| Nc1ncnn2c(C[C@@H](CF)OCP(=O)(O)O)cnc12 | HBV | 4.00 to 5.00 |

Next molecule, please.
Find the recorded pEC50 belonging to CC(C)OC(=O)OCOP(=O)(COC(C)Cc1ccc2c(=O)[nH]c(N)nn12)OCOC(=O)OC(C)C (centres unmarked) and report it.
> 6.00

Attribution: patent US11472826B2
